These measurements were taken from ChEMBL document CHEMBL1275247.

- procedure summary: Drug recovery in urine of healthy human at 2000 mg, iv administered as single dose as 1 hr iv infusion after 24 hrs
- Assay type: ADME, organism-based
- condition label: read-out: Activity
measure: dose excreted at 24 h (%)
Write it as a number; the unit % goes unstated.

-- ask Return the recorded dose excreted at 24 h value; entry: Cn1c(N)c(NC(=O)NCCN)c[n+]1CC1=C(C(=O)O)N2C(=O)[C@@H](NC(=O)/C(=N\OC(C)(C)C(=O)[O-])c3nsc(N)n3)[C@H]2SC1 [CEFTOLOZANE]
-- reply 97.7

----------
- procedure summary: Half-life in plasma of healthy human 500 mg, iv administered as 1 hr infusion every 8 hrs for 10 days measured on day 1
- Assay type: ADME, organism-based
measure: half-life (h)
The figure you give is taken to be in h; do not add the unit.

-- ask Please supply the value of reported half-life for the item Cn1c(N)c(NC(=O)NCCN)c[n+]1CC1=C(C(=O)O)N2C(=O)[C@@H](NC(=O)/C(=N\OC(C)(C)C(=O)[O-])c3nsc(N)n3)[C@H]2SC1
-- reply 2.21

----------
- procedure summary: Tmax in healthy human at 1500 mg, iv administered as 1 hr infusion every 12 hrs for 10 days measured on day 10
- Type: ADME, organism-based
- condition label: in vivo
measure: Tmax
Please report the result as a number followed by the unit.

-- ask Note down Tmax recorded for Cn1c(N)c(NC(=O)NCCN)c[n+]1CC1=C(C(=O)O)N2C(=O)[C@@H](NC(=O)/C(=N\OC(C)(C)C(=O)[O-])c3nsc(N)n3)[C@H]2SC1 [CEFTOLOZANE]
-- reply 1 h

----------
- procedure summary: AUC (0 to infinity) in healthy human at 500 mg, iv administered as 1 hr infusion every 8 hrs for 10 days measured on day 1
- Assay type: ADME, organism-based
- Parameters: dose 500 mg, route intravenous, time infinity
- condition label: plasma
measure: AUC(0-inf) (ng·h/mL)
Form entry: value (ng·h/mL) — number only.

-- ask # return recorded AUC(0-inf) for entry Cn1c(N)c(NC(=O)NCCN)c[n+]1CC1=C(C(=O)O)N2C(=O)[C@@H](NC(=O)/C(=N\OC(C)(C)C(=O)[O-])c3nsc(N)n3)[C@H]2SC1
-- reply 88100

----------
- procedure summary: Clearance in healthy human at 1000 mg, iv administered as 1 hr infusion every 8 hrs for 10 days measured on day 1
- Assay type: ADME, organism-based
- condition label: in vivo
measure: clearance (mL/min)
Your answer should be a plain number; it is taken to be in mL/min.

-- ask For the compound Cn1c(N)c(NC(=O)NCCN)c[n+]1CC1=C(C(=O)O)N2C(=O)[C@@H](NC(=O)/C(=N\OC(C)(C)C(=O)[O-])c3nsc(N)n3)[C@H]2SC1 , report clearance.
-- reply 112

----------
- procedure summary: Mean residence time in healthy human at 1000 mg, iv administered as 1 hr infusion every 8 hrs for 10 days measured on day 10
- Format: ADME, organism-based
- condition label: in vivo
measure: MRT
Kindly write the number and append the unit.

-- ask Note MRT for the compound shown: Cn1c(N)c(NC(=O)NCCN)c[n+]1CC1=C(C(=O)O)N2C(=O)[C@@H](NC(=O)/C(=N\OC(C)(C)C(=O)[O-])c3nsc(N)n3)[C@H]2SC1 [CEFTOLOZANE]
-- reply 2.45 h
